Give growth inhibition for every item shown.
- assay.remarks: NCI Yeast Anticancer Drug Screen. Data for the bub3 strain (AID 167)
- experimental.conditions: S. cerevisiae bub3 mutant strain, at 50.0 µM, hits give high values
Compounds without any hit were thinned out: in the full panel of roughly 79,000, 15% have a hit.
The answer is to be given in %; state only the numeric part.

Qu. Recorded growth inhibition of COc1ccc(-c2cc(=O)c3cc(C)c(C)c(C(=O)O)c3o2)cc1 , please.
Ans. -8.7

Qu. Recorded growth inhibition of O=C(Cl)C=Cc1ccc([N+](=O)[O-])cc1 (mixture of isomers) , please.
Ans. 2.15

Qu. Recorded growth inhibition of CCCN1C(=O)c2cc(=O)n(Cc3ccccc3)c(O)c2C1C (centres undefined) , please.
Ans. -9.45

Qu. Recorded growth inhibition of CSc1nc(SC)c(Nc2cccc(C)c2)c(SC)n1 , please.
Ans. 21.8

Qu. Recorded growth inhibition of O=C(OCc1ccccc1)c1ccccc1-c1c2ccc(=O)cc-2oc2cc(OCc3ccccc3)ccc12 , please.
Ans. 21.3

Qu. Recorded growth inhibition of CCCc1c(C)[nH]c2ccccc12 , please.
Ans. -16.9

Qu. Recorded growth inhibition of O=C(Nc1ccc(Cl)cc1C(F)(F)F)C(=O)Nn1c(=S)[nH]c2ccccc2c1=O , please.
Ans. -1.1

Qu. Recorded growth inhibition of O=C(CCC1CCCCC1=O)c1ccc(Br)cc1 (centres undefined) , please.
Ans. -6.55

Qu. Recorded growth inhibition of COc1cc(C(=O)Nc2cccc(Cl)c2Cl)cc(OC)c1OC , please.
Ans. 18

* * *

- assay.remarks: NCI Yeast Anticancer Drug Screen. Data for the sgs1 mgt1 strain (AID 161);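 note: 0% = growth of cultures given vehicle only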
- experimental.conditions: S. cerevisiae sgs1 mgt1 strain, at 50.0 µM, hits give high values
Compounds without any hit were thinned out: in the full panel of roughly 79,000, 15% have a hit.
Give growth inhibition for every item shown.
The answer is to be given in %; state only the numeric part.

Qu. Recorded growth inhibition of CCC([NH-])(CC)C[NH-].[Cl][Pt+2][Cl] , please.
Ans. -31.4

Qu. Recorded growth inhibition of Nc1cccc(CC(NC(=O)c2ccccc2)C(=O)O)c1 (stereo unspecified) , please.
Ans. 12.1

Qu. Recorded growth inhibition of Nc1nnc2nc(CC(=O)c3ccc4ccccc4c3)c(=O)[nH]n12 , please.
Ans. -0.1

Qu. Recorded growth inhibition of CCCCCC1OC1CC1OC1CCCCCCCC(=O)O (stereo unspecified) , please.
Ans. -3.85

Qu. Recorded growth inhibition of CCCCCN(CCCCC)c1ccc(/C=C/c2ccnc3ccccc23)cc1 , please.
Ans. 22.9

Qu. Recorded growth inhibition of O=C1C[C@@H]2[C@@H](CCC23CCCC3)N1 , please.
Ans. -9.75

Qu. Recorded growth inhibition of CCCc1cc(=O)oc2c3c(c4c(c12)OC(C)(C)CC4)O[C@H](C)C(C)C3O (stereo partly specified) , please.
Ans. 11.6

Qu. Recorded growth inhibition of COC(=O)C1=C(C(=O)OC)C2CCCOC2=C(C)C1 (stereo unspecified) , please.
Ans. -6.15

Qu. Recorded growth inhibition of CN(C)C(=S)SCC(=O)c1ccccc1 , please.
Ans. -16.6

Qu. Recorded growth inhibition of O=C(O)/C=C/C(=O)N(c1ccccc1)N(C(=O)/C=C/C(=O)O)c1ccccc1 , please.
Ans. 5.15

Qu. Recorded growth inhibition of C[C@@H]1CCC[C@H]1C(N)C(=O)O (stereo partly specified) , please.
Ans. -3.85

* * *

- assay.remarks: NCI Yeast Anticancer Drug Screen. Data for the mlh1 rad18 strain (AID 175)
- experimental.conditions: S. cerevisiae mlh1 rad18 strain growth inhibition; at 50.0 µM; hits give high values
The panel holds about 79,000 compounds, 15% with a hit somewhere; the sample as a whole holds those more often.
value.type: growth inhibition (%)
The answer is to be given in %; state only the numeric part.

Qu. Recorded growth inhibition of O=C1c2cc([N+](=O)[O-])ccc2-c2c(F)cc(F)cc21 , please.
Ans. -10.7

Qu. Recorded growth inhibition of CSc1c(C#N)c2c(Cl)ncnc2n1C(C)=O , please.
Ans. 5.35

Qu. Recorded growth inhibition of CCOC(CCC#N)c1ccc(C)cc1 (stereo unspecified) , please.
Ans. 22.3

Qu. Recorded growth inhibition of CCOc1ccc(OCC)c(NC(C)=O)c1 , please.
Ans. -3.6

Qu. Recorded growth inhibition of O=C(NNC1=NCCCN1)c1ccco1 , please.
Ans. -3.85

Qu. Recorded growth inhibition of c1ccc(CCN(c2ccccc2)c2ccccc2)cc1 , please.
Ans. 1.2

* * *

- assay.remarks: NCI Yeast Anticancer Drug Screen. Data for the bub3 strain (AID 167)
- experimental.conditions: S. cerevisiae bub3 mutant strain, at 50.0 µM, hits give high values
Compounds without any hit were thinned out: in the full panel of roughly 79,000, 15% have a hit.
Give growth inhibition for every item shown.
The answer is to be given in %; state only the numeric part.

Qu. Recorded growth inhibition of COC1NC(=O)Oc2ccccc21 (stereo not drawn) , please.
Ans. -12.5

Qu. Recorded growth inhibition of COC(=O)C1(Cc2ccc3c(c2)CCC3)Cc2ccccc2C1=O (stereo not drawn) , please.
Ans. 49.5

Qu. Recorded growth inhibition of COC(=O)c1cc2c(o1)Sc1ccccc1NC2=O , please.
Ans. -8.55

Qu. Recorded growth inhibition of Cc1ccc(Cc2nn(C)c(=O)n2-n2cccc2)cc1 , please.
Ans. -19.1

Qu. Recorded growth inhibition of CCCCCCCCCCCCCCCC(=O)OCC(O)C1OC(=O)C(O)=C1O (stereo not drawn) , please.
Ans. 24.2

Qu. Recorded growth inhibition of CC(O)CN1CCN(CC(C)O)C(C)C1 (stereo not drawn) , please.
Ans. -7.2

Qu. Recorded growth inhibition of Cc1nc(N)nc(C)c1N=Nc1ccc(Cl)cc1Cl , please.
Ans. -5.25

Qu. Recorded growth inhibition of O=C(Nc1ccccc1)OCC#CCOC(=O)Nc1ccccc1 , please.
Ans. 2.45

Qu. Recorded growth inhibition of Fc1ccccc1C(Nc1nc2ccccc2s1)Nc1nc2ccccc2s1 , please.
Ans. -3.15

Qu. Recorded growth inhibition of CN(O)C(=O)c1ccccc1 , please.
Ans. 15.1

Qu. Recorded growth inhibition of COCCc1c2ccccc2cc2ccccc12 , please.
Ans. -22.1

Qu. Recorded growth inhibition of O=C(N=C1SCCS1)Nc1cccc(Cl)c1 , please.
Ans. 11.4

Qu. Recorded growth inhibition of CC(=O)Nc1cc2c(cc1C=O)OCO2 , please.
Ans. -2.5

Qu. Recorded growth inhibition of CCCCCCOCC(=O)O , please.
Ans. -10.4

Qu. Recorded growth inhibition of Cc1cccc(C)n1 , please.
Ans. -6.55

Qu. Recorded growth inhibition of O=C(Nc1ccccc1Br)c1cccc([N+](=O)[O-])c1O , please.
Ans. 29.4

Qu. Recorded growth inhibition of c1cc[n+](CC[n+]2ccccn2)nc1 , please.
Ans. 45.6

Qu. Recorded growth inhibition of CC(C)C(=O)CC1(O)C(=O)Nc2ccc([N+](=O)[O-])cc21 (stereo not drawn) , please.
Ans. 4.15

* * *

- assay.remarks: NCI Yeast Anticancer Drug Screen. Data for the rad50 strain (AID 155);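 note: 0% = growth of vehicle-only cultures of the same strain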
- experimental.conditions: S. cerevisiae rad50 strain growth inhibition; at 50.0 µM; hits give high values
The panel holds about 79,000 compounds, 15% with a hit somewhere; the sample as a whole holds those more often. *1 amine or outer side, *2 acyl side, *3 side chain or, on linkers, in order; H or OH if unused. Where a SMILES comes first, the peptide text is derived from it. [ ]: non-standard residue; d: D form. X12 = NC(N)=NCC(O)CC(N[*:1])C(=O)[*:2]; Orn = NCCC[CH](N)C(=O)O
value.type: growth inhibition (%)
The answer is to be given in %; state only the numeric part.

Qu. Recorded growth inhibition of Cc1cc2c(cc1C)-c1nn(-c3ccccc3)c(-c3ccc(Cl)cc3)c1CCO2 , please.
Ans. 27.2

Qu. Recorded growth inhibition of COc1ccc(Cc2cc3c(cc2OC(C)=O)OCO3)cc1 , please.
Ans. -4.2

Qu. Recorded growth inhibition of CCCCCCCCCCCCCC(=O)OCC(=O)c1ccc(-c2ccccc2)cc1 , please.
Ans. 23.1

Qu. Recorded growth inhibition of Cc1cc(=O)[nH]c2nc(N)ccc12 , please.
Ans. -9.5

Qu. Recorded growth inhibition of CCCCOC(=O)C(C)OP(=O)(OC(C)C(=O)OCCCC)OC(C)C(=O)OCCCC (stereo unspecified) , please.
Ans. -19.4

Qu. Recorded growth inhibition of C[n+]1ccc(/C(C#N)=N/O)cc1 , please.
Ans. -16.4

Qu. Recorded growth inhibition of CC(O)C(NC(=O)C(CCCN)NC(=O)C(CC(O)CN=C(N)N)NC(=O)C(N)CCCN=C(N)N)C(=O)NC(CCCN)C(=O)NC(CC(O)CN=C(N)N)C(=O)NC(Cc1ccc(O)cc1)C(=O)O (stereo unspecified) (tested in a mixture with another compound) (H-R[X12][Orn]T[Orn][X12]Y-OH; configuration not given here) , please.
Ans. 39.6

Qu. Recorded growth inhibition of C=C(C)c1ccc2c(c1)C(=O)C[C@@H]1[C@](C)(C#N)CCC[C@]21C , please.
Ans. -19.9

Qu. Recorded growth inhibition of c1ccc(CCN2CCCCCCCC2)nc1 , please.
Ans. 1.35

Qu. Recorded growth inhibition of CN(CC1NCCCC1O)C12CC3CC(CC(C3)C1)C2 (stereo unspecified) , please.
Ans. 0.5

Qu. Recorded growth inhibition of N#Cc1c2ccccc2cc2c1ccc1ccccc12 , please.
Ans. 6.95

Qu. Recorded growth inhibition of CC(C)S1=C2C(=O)CC(C)(C)CC2=Nc2ccccc21 (stereo unspecified) , please.
Ans. 7.65

Qu. Recorded growth inhibition of COc1cc(C=O)ccc1OC(=O)Nc1cc(Cl)ccc1C , please.
Ans. 6.6

Qu. Recorded growth inhibition of COc1ccc(-n2cnc3c(cnn3C3OC(CO)C(O)C3O)c2=O)cc1 (stereo unspecified) , please.
Ans. 8.7

Qu. Recorded growth inhibition of O=C(Nc1nc(C23CC4CC(CC(C4)C2)C3)cs1)c1cc2cc(Br)cc(Br)c2oc1=O , please.
Ans. -8.75

Qu. Recorded growth inhibition of CS(=O)(=O)c1ccc(/C=C2/C=Cc3ccccc32)cc1 , please.
Ans. 19.1

Qu. Recorded growth inhibition of CCNC(=O)OCc1cc(Cl)cc(Cl)c1OC(=O)NCC , please.
Ans. 99.5

Qu. Recorded growth inhibition of CNc1nc(N(C)C)nc(N(C)C)n1 , please.
Ans. 25.2

Qu. Recorded growth inhibition of Cc1cc(=O)[nH]c(N/N=C2/CCCCC2C)n1 (stereo unspecified) , please.
Ans. -29.4

Qu. Recorded growth inhibition of C/C(=N\NC(N)=S)c1sc(-n2nc(-c3ccccc3)cc2-c2ccccc2)nc1C , please.
Ans. 4.65

Qu. Recorded growth inhibition of CCCCCCC1CCC(OC(C)=O)CC1 (stereo unspecified) , please.
Ans. 5.65

Qu. Recorded growth inhibition of Cc1cc(C)cc(OCCC(=O)O)c1 , please.
Ans. -1.4

Qu. Recorded growth inhibition of CN(C)c1nc2ccccn2c1C(=O)c1ccccc1 , please.
Ans. 4.85

Qu. Recorded growth inhibition of Cc1ccc(N)c(C#N)c1 , please.
Ans. -11.8

Qu. Recorded growth inhibition of O=C(N/C(=C/c1ccccc1)C(=O)N1CCN(C(=O)/C(=C\c2ccccc2)NC(=O)c2ccccc2)CC1)c1ccccc1 , please.
Ans. 0.9

Qu. Recorded growth inhibition of N#C/C(=C/NC(=S)NCc1ccccc1)C(N)=O , please.
Ans. -32.6

Qu. Recorded growth inhibition of Clc1ccccc1OCCNC1CC1 , please.
Ans. 20.7

Qu. Recorded growth inhibition of COC(=O)C1(O)C(=O)NC2=C1C(=O)c1ccccc1C2=O (stereo unspecified) , please.
Ans. 9.75

Qu. Recorded growth inhibition of COc1ccc(N2C(=O)[C@@H]3[C@H](C2=O)c2[nH]c4ccccc4c2C2CCC(C(C)(C)C)C[C@@H]23)cc1 (stereo partly specified) , please.
Ans. 29.6

Qu. Recorded growth inhibition of CC(=O)Nc1ccc(S(=O)(=O)NNc2nc(N3CCCC3)nc(N3CCCC3)n2)cc1 , please.
Ans. 1.7

Qu. Recorded growth inhibition of O=C(/C=C/c1ccc2c(c1)OCO2)c1cccc2ccccc12 , please.
Ans. -4.4

Qu. Recorded growth inhibition of COc1cc(/C=N/N2CC(=O)N(c3cccc(Cl)c3)CC2=O)cc(OC)c1 , please.
Ans. -1.65

Qu. Recorded growth inhibition of Cn1c(CBr)nc2c1C(=O)c1nc[nH]c(=O)c1C2=O , please.
Ans. 32

Qu. Recorded growth inhibition of O=C(Nc1ccccc1[N+](=O)[O-])OCCOc1ccccc1 , please.
Ans. 1.65

Qu. Recorded growth inhibition of Cc1ccc(S(=O)(=O)N2CCN(S(=O)(=O)c3ccc(C)cc3)COC2)cc1 , please.
Ans. -1.1

Qu. Recorded growth inhibition of CC(C)(C)OC(=O)C1/C(=C/CO)CN1C(=O)OC(C)(C)C (stereo unspecified) , please.
Ans. -17.9
